assay: in vitro; settings: human, HepG2-A16-CD81EGFP cells, uninfected
Recorded viability at 48 h, 3 µM for the following compounds
Write the number in % without appending the unit.

// solved cases for viability at 48 h, 3 µM follow
May I ask what viability at 48 h, 3 µM has been recorded for CC1(C)N=C(N)N=C(N)N1c1ccc(OCCCOc2ccccc2)c(Cl)c1 [MLS000738223-01] ? 32

Also COc1cc(C#Cc2c(-c3cncn3C)n(C)c3ccc(-c4ccc5[nH]ccc5c4)cc23)cc(OC)c1 [MLS002391601-01] , if possible. 102

Also CCN1CCN(Cc2ccc(NC(=O)c3cc(NC(=O)c4cnn(-c5ccccc5)c4N)cc(OC)c3)cc2C(F)(F)F)CC1 [MLS000911569-01] , if possible. 106

Also CCOC(=O)c1cnc2ccc(OC)cc2c1Nc1ccc(N2CCN(C)CC2)cc1 [MLS001164177-01] , if possible. 94

Also O=C(CN1C2=NCCCN2c2ccccc21)c1ccc(Cl)cc1Cl [MLS000662689-01] , if possible. 94

Also COc1ccc(CNCC(O)(c2ccc(Cl)cc2)c2ccc(Cl)cc2)cc1 [MLS000325709-01] , if possible. 96

Others:
May I ask what viability at 48 h, 3 µM has been recorded for CCCN(CCC)CCNC(=O)c1cc2c(-c3ccc(Cl)cc3)nn(C)c2s1 [NCGC00108997-01] ? 98

Also O=C(NCCNc1ccnc2cc(Cl)ccc12)c1ccccc1F [MLS001163130-01] , if possible. 86

====

system: P. falciparum Dd2 Cytb A122D; assay: SYBR Green ABS proliferation assay, NCGC00473217 selected clone F12; assay type: cell-based, Plasmodium falciparum; conditions: Plasmodium falciparum, DD2, […]; averaged from three independent replicates; top concentration 29 µM; read-out: Average AC50 (Log[M]), NCGC00473217 clone F12 (Cytb A122D) (converted)
recorded endpoint: AC50 (M)
Write the number in M without appending the unit.

// solved cases for AC50 follow
May I ask what AC50 has been recorded for CCCN1C(CC(C)C)=N[S+](=O)([O-])c2cc(NC(=O)c3cncs3)ccc21 ? 1.72e-06

Also CCCN1C(CC(C)C)=N[S+](=O)([O-])c2cc(NC(=O)c3ccc(C(F)(F)F)cc3)ccc21 , if possible. 8.93e-10

Also CCCN1C(CC(C)C)=N[S+](=O)([O-])c2cc(NC(=O)C3CCC3)ccc21 , if possible. 1e-05

Also CN1C(CSCC(F)(F)F)Nc2cc(Cl)c(S(N)(=O)=O)cc2S1(=O)=O (stereo not drawn) , if possible. 1e-08

Also CCCN1C(CC(C)C)=N[S+](=O)([O-])c2cc(N[S+](=O)([O-])c3cccs3)ccc21 , if possible. 8.93e-06

Read the next record carefully.
May I ask what AC50 has been recorded for CCCN1C(CC(C)C)=N[S+](=O)([O-])c2cc(NC(=O)c3ccccc3OC(F)(F)F)ccc21 ? 1.08e-05

====

Recorded AC50 for the following molecules
test system: Plasmodium falciparum Dd2 asexual blood stage parasites; experiment: microbe, parasite or virus in culture; parameters: species or system Plasmodium falciparum Dd2 in human erythrocytes; single determination (one 11-point concentration-response curve); details: Plasmodium falciparum, DD2, Erythrocyte, 72 h; read-out: AC50
Write the number in µM without appending the unit.

// solved cases for AC50 follow
May I ask what AC50 has been recorded for COc1cc2c(cc1Oc1cccc(N(C)C)c1)NC(=O)C21CCN(c2cnccn2)CC1 [NCGC00416778-01] ? 1.5

Also COc1ccc(C2C=C(c3ccc(F)cc3)Nc3nc(-c4ccc(Cl)cc4)nn32)cc1 (centres unmarked) [NCGC00100513-01] , if possible. 0.75

Also Cc1cc(O)c(CN2CC=C(c3ccccc3)CC2)cc1C(C)C [MLS001176749-01] , if possible. 0.335

Also Cc1cc(N2CCC(N(C)C3CCCC3)CC2)nc2cc(O)ccc12 [MLS000118330-01] , if possible. 5.96

Also COc1ccc(/C=C\c2onc(C)c2[S+](=O)([O-])N2CCC(C(=O)Nc3ccc(C)cc3C)CC2)cc1 [NCGC00109197-01] , if possible. 0.841

Others:
May I ask what AC50 has been recorded for O=C1c2ccccc2C2=Nc3ccccc3SC(c3ccccc3F)C12 (centres unmarked) [MLS000562246-01] ? 4.73

Also COc1cc(NC(=O)Cn2ncc3c(=O)oc4ccccc4c32)cc(OC)c1OC [NCGC00108571-01] , if possible. 2.66

Also CCc1c(C)c2ccc(O)c(CN3CCN(c4ccccc4)CC3)c2oc1=O [NCGC00119657-01] , if possible. 2.37
